Cited source for all entries: PubChem BioAssay (NCI)

test system: SNB-19 CNS; assay: NCI tumour cell line growth inhibition, 48 h
Readings of TGI for the listed molecules

A selection of reference data follows.
>>> df
                                   molecule  testvalue
0  CC12CCC(=O)N1c1cc([N+](=O)[O-])ccc1N2 (stereo not drawn)   > 100 µM
1  Cc1ccc(N/C(=C(/C(Cl)=C(Cl)Cl)[N+](=O)[O-])n2nnc3ccccc32)cc1    33.9 µM
2  COc1cccc(-c2cc(=O)c3cc(C)c(C)c(C(=O)O)c3o2)c1   > 100 µM
3  COc1ccc2c(c1)CC[C@@H]1C2CC[C@]2(C)C(=N\O)/C(=N/O)CC12 (stereo partly drawn)    32.9 µM

Asked: Indicate the recorded TGI value for this molecule: `C[C@]12CCC(=O)C=C1CC[C@@H]1[C@@H]2CC[C@]2(C)C(=O)/C(=C/c3ccncc3)C[C@@H]12`
Given back: 26.8 µM

Asked: Return TGI (reported value) for this molecule: Clc1ccc(C2ON=C(c3ccccc3)N2C23CC4CC(CC(C4)C2)C3)cc1Cl (stereo not drawn)
Given back: > 10 µM

Asked: Dear colleague, please send me the reported TGI for Cc1cc2nn(C3CCCCO3)nc2cc1C (stereo not drawn) when you can.
Given back: > 100 µM

Asked: Give a short answer stating reported TGI for CC(SC(=S)N(C)C)C(=O)Nc1nnc(-c2ccc(Cl)cc2)o1 (stereo not drawn) .
Given back: > 100 µM
